# target-or-test-system: Recombinant human HSP90a (Homo sapiens)
# assay-method-text: radioligand filter binding test ([3H]17AAG competition) for HSP90 inhibition
# run-parameters: competition with [3H]17AAG 0.08 μM, HSP90 1.5 μg/assay, 22° C., 30 min
property-label: IC50

* CCNC(=O)c1ccc2nc(N)nc(C(=O)N(CC)CC)c2c1 [Compound A140] | > 10 µM
* Nc1nc(C(=O)N2Cc3ccccc3C2)c2cc(NC3CCC(O)CC3)ccc2n1 (centres unmarked) [Compound A951] | 1 to 10 µM
* N#CCc1ccccc1-c1ccc2nc(N)nc(C(=O)N3Cc4ccccc4C3)c2c1 [Compound A344a] | 0.01 to 1 µM
* CC(C)c1ccc2nc(N)nc(C(=O)N3Cc4ccc(Br)cc4C3)c2c1 [Compound A117] | 1 to 10 µM
* Nc1nc(C(=O)N2Cc3ccccc3C2)c2cc(-c3ccccc3C(F)(F)F)ccc2n1 [Compound A262] | 0.01 to 1 µM
* CCc1ccc2nc(N)nc(C(=O)N3Cc4ccccc4C3)c2c1 [Compound A97] | 0.01 to 1 µM
* CN1CCN(Cc2ccccc2-c2ccc3nc(N)nc(C(=O)N4Cc5ccccc5C4)c3c2)CC1 [Compound A970] | 0.01 to 1 µM
* Nc1nc(C(=O)N2Cc3ccccc3C2)c2cc(NC3CCCCC3)ccc2n1 [Compound A949] | 0.01 to 1 µM

Where do these numbers come from? They come from patent US8501754B2.
